// data source = patent US10364245B2

- system: p38 alpha (Homo sapiens)
- Sequence (Q16539 whole entry): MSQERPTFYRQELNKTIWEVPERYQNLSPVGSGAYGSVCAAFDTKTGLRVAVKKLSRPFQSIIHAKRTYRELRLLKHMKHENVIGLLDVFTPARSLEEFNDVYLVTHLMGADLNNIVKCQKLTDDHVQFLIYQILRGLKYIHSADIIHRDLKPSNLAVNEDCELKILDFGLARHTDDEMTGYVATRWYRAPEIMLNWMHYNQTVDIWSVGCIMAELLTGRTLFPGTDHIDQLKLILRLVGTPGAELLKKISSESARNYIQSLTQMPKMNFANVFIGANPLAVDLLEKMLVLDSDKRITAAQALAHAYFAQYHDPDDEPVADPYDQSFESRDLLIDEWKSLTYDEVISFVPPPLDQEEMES
- assay-protocol: P38 alpha enzyme inhibition assay (Alphascreen kinase activity assay)
- reported-conditions: 100 pM p38 alpha, 2 hours preincubation at 25° C., 250 μM ATP, ATF-2 fusion protein; read-out: p38α inhibition
This listing pairs compounds with measured IC50.

Examples with their reported IC50 follow.
structure-as-smiles: CC(C)(C)c1cc(NC(=O)N[C@H]2CC[C@@H](Oc3ccc4nnc(C(C)(C)C)n4c3)c3ccccc32)nc(C(=O)NCCN2CC[C@@H](O)C2)n1
IC50: < 1 nM
--
structure-as-smiles: CN(C)C1(CNC(=O)c2nc(NC(=O)N[C@H]3CC[C@@H](Oc4ccc5nnc(C(C)(C)C)n5c4)c4ccccc43)cc(C(C)(C)C)n2)CCCC1
IC50: 1 to 10 nM
--
structure-as-smiles: CCC(CC)c1nnc2ccc(O[C@@H]3CC[C@H](NC(=O)Nc4cc(C(C)(C)C)nc(C(=O)NCCO)n4)c4ccccc43)cn12
IC50: < 1 nM

Look up IC50: `CN1CCC[C@@]1(C)c1nnc2ccc(O[C@@H]3CC[C@H](NC(=O)Nc4cc(C(C)(C)C)nc(CO)n4)c4ccccc43)cn12`
< 1 nM

Report IC50 for `COC(C)(C)c1nnc2ccc(O[C@@H]3CC[C@H](NC(=O)Nc4cc(C(=O)NCC(C)(C)N(C)C)nc(C(C)(C)C)c4)c4ccccc43)cn12` please.
1 to 10 nM

Given the compound `COCC(C)(C)c1nnc2ccc(O[C@@H]3CC[C@H](NC(=O)Nc4cc(C(C)(C)C)nc(C(=O)NCC5(N(C)C)CCOCC5)n4)c4ccccc43)cn12` , what is its reported IC50?
1 to 10 nM
